- ASSAYED SYSTEM: full-length human RORγ (Homo sapiens, UniProt P51449)
- Construct: Encodes for the full-length human RORγ; expressed in transfected cells; host or cells: HEK293
- Sequence (P51449 1-518): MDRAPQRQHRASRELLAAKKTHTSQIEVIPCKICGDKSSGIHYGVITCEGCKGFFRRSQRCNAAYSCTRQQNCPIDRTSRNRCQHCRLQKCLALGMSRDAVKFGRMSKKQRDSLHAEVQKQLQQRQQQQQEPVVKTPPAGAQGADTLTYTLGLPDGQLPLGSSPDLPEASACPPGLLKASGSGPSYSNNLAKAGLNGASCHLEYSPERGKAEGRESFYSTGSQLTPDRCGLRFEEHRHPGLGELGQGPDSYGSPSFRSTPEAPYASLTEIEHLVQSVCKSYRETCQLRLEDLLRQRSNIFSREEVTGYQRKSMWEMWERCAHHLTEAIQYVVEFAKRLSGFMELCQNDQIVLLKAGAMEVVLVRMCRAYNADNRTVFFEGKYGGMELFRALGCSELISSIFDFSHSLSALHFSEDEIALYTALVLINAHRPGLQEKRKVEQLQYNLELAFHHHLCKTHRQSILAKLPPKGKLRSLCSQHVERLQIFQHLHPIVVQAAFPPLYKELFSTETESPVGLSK
- ASSAY COMMENT: Full-length RORγ luciferase assay (RORE-LUC reporter)
- Type: cell-based
- CONDITION NOTES: HEK293 cells, 18 h treatment, up to 5 μM; read-out: IC50, full-length RORγ luciferase assay
QUANTITY NAME: pIC50
For clarity, pIC50 is expressed as the negative log10 of concentration in mol/L.

pIC50 lookup needed for C=C(C)[C@@H]1CC[C@]2(C(=O)O)CC[C@]3(C)[C@H](CC[C@@H]4[C@@]5(C)C/C(=C/c6ccco6)C(=O)C(C)(C)[C@@H]5CC[C@]43C)[C@@H]12 [Compound 15] , thanks.
6.05

* * *

- ASSAYED SYSTEM: Gal4-RORγ H479L (Homo sapiens, UniProt P51449, H479L)
- ASSAY COMMENT: Gal4-RORγ H479L mutant luciferase assay
- CONDITION NOTES: 5 μM

COMPOUND STRUCTURE | Activity on Gal4-RORγ H479L vs WT
C=C(C)[C@@H]1CC[C@]2(C(=O)O)CC[C@]3(C)[C@H](CC[C@@H]4[C@@]5(C)C/C(=C/c6ccccc6)C(=O)C(C)(C)[C@@H]5CC[C@]43C)[C@@H]12 | loss of activity
C=C(C)[C@@H]1CC[C@]2(C(=O)O)CC[C@]3(C)[C@H](CC[C@@H]4[C@@]5(C)C/C(=C/c6ccco6)C(=O)C(C)(C)[C@@H]5CC[C@]43C)[C@@H]12 | loss of activity
C=C(C)[C@@H]1CC[C@]2(C(=O)O)CC[C@]3(C)[C@H](CC[C@@H]4[C@@]5(C)C/C(=C/c6cccc(I)c6)C(=O)C(C)(C)[C@@H]5CC[C@]43C)[C@@H]12 | loss of activity

* * *

- ASSAYED SYSTEM: full-length human RORγ (Homo sapiens, UniProt P51449)
- Construct: Encodes for the full-length human RORγ; expressed in transfected cells; host or cells: HEK293
- ASSAY COMMENT: Full-length RORγ luciferase assay (RORE-LUC reporter)
- Assay type: cell-based
- CONDITION NOTES: exceeds the highest concentration tested, only an estimate; read-out: Estimated IC50, full-length RORγ luciferase assay
QUANTITY NAME: pIC50
Expect pIC50 as a plain number equal to -log10 of the molar concentration.

What value of pIC50 has been reported for the following compound? `C=C(C)[C@@H]1CC[C@]2(C(=O)O)CC[C@]3(C)[C@H](CC[C@@H]4[C@@]5(C)C/C(=C/c6ccccc6)C(=O)C(C)(C)[C@@H]5CC[C@]43C)[C@@H]12`
5.24

The reported numbers originate from paper PMC12379159.
